Catalogue of viability, T/C values
# System: NCI-H23 complex spheroids with HUVEC/MSC, viability
# Method: Anticancer human tumor NCI-H23 cell line growth inhibition [RAS];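 also: spheroids exposed to compound for 7 days; 100% = DMSO vehicle control viability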
# Setup conditions: second compound 0.0316 µM; first compound 0.0316 µM; active compounds read low

Molecule	viability, T/C [%]
O=C(c1ccc(F)c(F)c1Nc1ccc(I)cc1F)N1CC(O)([C@@H]2CCCCN2)C1 + C#Cc1c(F)ccc2cc(O)cc(-c3ncc4c(N5CC6CCC(C5)N6)nc(OCC56CCCN5CC(F)C6)nc4c3F)c12	70.8
CC1(O)CCCC1n1c(=O)c(C(F)F)cc2cnc(NC3CCN(S(C)(=O)=O)CC3)nc21 (stereo not drawn) + C#Cc1c(F)ccc2cc(O)cc(-c3ncc4c(N5CC6CCC(C5)N6)nc(OCC56CCCN5CC(F)C6)nc4c3F)c12	93.3
Nc1ccn(C2OC(CO)C(O)C2(F)F)c(=O)n1 (stereo not drawn) + C#Cc1c(F)ccc2cc(O)cc(-c3ncc4c(N5CC6CCC(C5)N6)nc(OCC56CCCN5CC(F)C6)nc4c3F)c12	9.28
CC(C)n1nc(-c2ccc3oc(N)nc3c2)c2c(N)ncnc21 + C#Cc1c(F)ccc2cc(O)cc(-c3ncc4c(N5CC6CCC(C5)N6)nc(OCC56CCCN5CC(F)C6)nc4c3F)c12	51.4
NC1c2ccccc2OC12CCN(c1cnc3c(N4CCCc5ncccc54)n[nH]c3n1)CC2 (stereo not drawn) + C#Cc1c(F)ccc2cc(O)cc(-c3ncc4c(N5CC6CCC(C5)N6)nc(OCC56CCCN5CC(F)C6)nc4c3F)c12	69.3
Cc1nc(N2CCC3(CC2)COC(C)C3N)c(CO)nc1Sc1ccnc(N)c1Cl (stereo not drawn) + C#Cc1c(F)ccc2cc(O)cc(-c3ncc4c(N5CC6CCC(C5)N6)nc(OCC56CCCN5CC(F)C6)nc4c3F)c12	101
CC(=O)OC12COC1CC(O)C1(C)C(=O)C(O)C3=C(C)C(OC(=O)C(O)C(NC(=O)OC(C)(C)C)c4ccccc4)CC(O)(C(OC(=O)c4ccccc4)C21)C3(C)C (stereo not drawn) + C#Cc1c(F)ccc2cc(O)cc(-c3ncc4c(N5CC6CCC(C5)N6)nc(OCC56CCCN5CC(F)C6)nc4c3F)c12	30.7
O=C(c1ccc(F)c(F)c1Nc1ccc(I)cc1F)N1CC(O)([C@@H]2CCCCN2)C1 + C=CC(=O)N1CCN(c2nc(OCC3CCCN3C)nc3c(F)c(-c4nc(N)cc(C)c4C(F)(F)F)c(Cl)cc23)C(C)C1	37.2
